system: 201T; experiment: relative viability (nuclei count vs DMSO), 5 days (fraction); higher = more cells survive; conditions: first compound 6.325 µM
quantity_kind: relative viability
Could you keep your reply to the number by itself?

Examples from the recorded data:
compound: COCC1(CO)C(=O)C2CCN1CC2 (stereo unspecified) [PRIMA-1MET] + O=C(CCCCCCC(=O)Nc1ccccc1)NO [Vorinostat] (partner 1 µM)
relative viability: 0.991
--
compound: COCC1(CO)C(=O)C2CCN1CC2 (stereo unspecified) [PRIMA-1MET] + COc1cccc2cc(-c3nc([C@H]4CC[C@H](C(=O)O)CC4)n4ncnc(N)c34)[nH]c12 [OSI-027] (partner 0.5 µM)
relative viability: 0.759
--
compound: COCC1(CO)C(=O)C2CCN1CC2 (stereo unspecified) [PRIMA-1MET] + CCNC(=O)c1noc(-c2cc(C(C)C)c(O)cc2O)c1-c1ccc(CN2CCOCC2)cc1 [Luminespib] (partner 0.01 µM)
relative viability: 1.05
--
compound: COCC1(CO)C(=O)C2CCN1CC2 (stereo unspecified) [PRIMA-1MET] + COc1cc2c(Oc3ccc(NC(=O)C4(C(=O)Nc5ccc(F)cc5)CC4)cc3F)ccnc2cc1OCCCN1CCOCC1 [Foretinib] (partner 0.25 µM)
relative viability: 1.15
--
compound: COCC1(CO)C(=O)C2CCN1CC2 (stereo unspecified) [PRIMA-1MET] + C[C@]1(O)C[C@@H](c2nc(-c3ccc4ccc(-c5ccccc5)nc4c3)c3c(N)nccn32)C1 [Linsitinib] (partner 1 µM)
relative viability: 1.11

# context switch: different compound, same relative viability
input: // returns reported relative viability for input COCC1(CO)C(=O)C2CCN1CC2 (stereo unspecified) [PRIMA-1MET] + CS(=O)(=O)CCNCc1ccc(-c2ccc3ncnc(Nc4ccc(OCc5cccc(F)c5)c(Cl)c4)c3c2)o1 [Lapatinib] (partner 2 µM)
output: 1.07

* * *

test system: NCI-H1437; test: relative viability (nuclei count vs DMSO), 5 days (fraction); higher = more cells survive; settings: first compound 2.53 µM
Recorded relative viability by entry

Examples from the recorded data:
compound: O=c1cc(-c2cccc3c2Sc2ccccc2S3)oc(N2CCOCC2)c1 + Cc1nc(Nc2ncc(C(=O)Nc3c(C)cccc3Cl)s2)cc(N2CCN(CCO)CC2)n1 [Dasatinib] (partner 0.075 µM)
assay_target: NCI-H1437
result: 0.339
--
compound: O=c1cc(-c2cccc3c2Sc2ccccc2S3)oc(N2CCOCC2)c1 + CS(=O)(=O)CCNCc1ccc(-c2ccc3ncnc(Nc4ccc(OCc5cccc(F)c5)c(Cl)c4)c3c2)o1 [Lapatinib] (partner 2 µM)
assay_target: NCI-H1437
result: 0.751

# context switch: different compound, same relative viability
input: // returns reported relative viability for input O=c1cc(-c2cccc3c2Sc2ccccc2S3)oc(N2CCOCC2)c1 + CC(=O)Nc1cccc(-n2c(=O)n(C3CC3)c(=O)c3c(Nc4ccc(I)cc4F)n(C)c(=O)c(C)c32)c1 [Trametinib] (partner 0.02 µM)
output: 0.395

* * *

Recorded relative viability by entry
tested on: UMC-11; assay: relative viability (nuclei count vs DMSO), 5 days (fraction); higher = more cells survive; details: first compound 1 µM
Could you keep your reply to the number by itself?

Examples from the recorded data:
compound: CCN(CC)CCCCNc1ncc2cc(-c3cc(OC)cc(OC)c3)c(NC(=O)NC(C)(C)C)nc2n1 + CC1(C)CCC(c2ccc(Cl)cc2)=C(CN2CCN(c3ccc(C(=O)NS(=O)(=O)c4ccc(N[C@H](CCN5CCOCC5)CSc5ccccc5)c(S(=O)(=O)C(F)(F)F)c4)cc3)CC2)C1 [Navitoclax] (partner 0.5 µM)
assay_target: UMC-11
recorded_number: 0.308
//
compound: O=c1cc(N2CCOCC2)oc2c(-c3cccc4c3sc3ccccc34)cccc12 + CS(=O)(=O)CCNCc1ccc(-c2ccc3ncnc(Nc4ccc(OCc5cccc(F)c5)c(Cl)c4)c3c2)o1 [Lapatinib] (partner 2 µM)
assay_target: UMC-11
recorded_number: 0.951
//
compound: CCN(CC)CCCCNc1ncc2cc(-c3cc(OC)cc(OC)c3)c(NC(=O)NC(C)(C)C)nc2n1 + COc1cc2c(Oc3ccc(NC(=O)C4(C(=O)Nc5ccc(F)cc5)CC4)cc3F)ccnc2cc1OCCCN1CCOCC1 [Foretinib] (partner 0.25 µM)
assay_target: UMC-11
recorded_number: 1.02

input: // returns reported relative viability for input CCN(CC)CCCCNc1ncc2cc(-c3cc(OC)cc(OC)c3)c(NC(=O)NC(C)(C)C)nc2n1 + Nc1ncn([C@H]2C[C@H](O)[C@@H](CO)O2)c(=O)n1 [Decitabine] (partner 2 µM)
output: 0.592

Source listed as the supplement of paper PMC10307832.
